# measured_target: Pro-Link-tagged Human GLP-1R (human, UniProt P43220 24-463); further: reference of the scale not given here
# measurement_notes: cell-based or functional assay
recorded_metric: hGLP1R B-Arrestin2 % Top (%)

{"binder": "XXEGTFTSDYSIXLDXKAQXEFIEYLIAGGPSSGAPPPS (D-Tyr1, Aib2, αMeL13, Orn16, K17 conjugated to (2-[2-(2-Amino-ethoxy)-ethoxy]-acetyl)-(γ-Glu)-CO-(CH2)18-CO2H, Aib20, C-terminal amide (NH2)) [Example 371]", "numeric_readout": 21.7}
{"binder": "XXEGTFTSDYSIXLDXKAQXEFIEXLIAGGPSSGAPPPS (D-Tyr1, Aib2, αMeL13, Orn16, K17 conjugated to (2-[2-(2-Amino-ethoxy)-ethoxy]-acetyl)2-(γ-Glu)-CO-(CH2)18-CO2H, Aib20, αMeY25, C-terminal amide (NH2)) [Example 293]", "numeric_readout": 29.5}
{"binder": "XXEGTFTSDYSIXLDXKAQXAFVEYLIEGGPSSGAPPPS (D-Tyr1, Aib2, αMeL13, Orn16, K17 conjugated to (2-[2-(2-Amino-ethoxy)-ethoxy]-acetyl)2-(γ-Glu)-CO-(CH2)18-CO2H, Aib20, C-terminal amide (NH2)) [Example 360]", "numeric_readout": 25.8}
{"binder": "XXEGTFTSDYSIXLDXKAQXAFIEXLIAGGPSSGAPPPS (D-Tyr1, Aib2, αMeL13, Orn16, K17 conjugated to (2-[2-(2-Amino-ethoxy)-ethoxy]-acetyl)2-(γ-Glu)-CO-(CH2)18-CO2H, Aib20, αMeY25, C-terminal amide (NH2)) [Example 366]", "numeric_readout": 21.2}
{"binder": "XXEGTXTSDYSIXLDKKAQXAFIEYLIEGGPSSGAPPPS (not fully specified; D-Tyr1, Aib2, αMeF(2F)6, αMeL13, K17 conjugated to (2-[2-(2-Amino-ethoxy)-ethoxy]-acetyl)2-(γ-Glu)-CO-(CH2)18-CO2H, Aib20, C-terminal amide (NH2)) [Example 336]", "numeric_readout": 82.5}
{"binder": "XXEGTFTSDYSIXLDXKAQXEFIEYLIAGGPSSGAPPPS (D-Tyr1, Aib2, αMeL13, Orn16, K17 conjugated to (2-[2-(2-Amino-ethoxy)-ethoxy]-acetyl)2-(γ-Glu)-CO-(CH2)18-CO2H, Aib20, C-terminal amide (NH2)) [Example 349]", "numeric_readout": 18.4}
